Sourced from patent US11439707B2

- method: absorption spectrum (maximum absorption wavelength, molar extinction coefficient)
- Assay type: physicochemical
Assignment: determine reported maximum absorption wavelength for the given compounds.
Express your answer in nm, writing the number without its unit.

Query: Name the recorded maximum absorption wavelength for COc1c(NCCCCCC(=O)O)c2c(=O)cc(OC)c3c4c(OC)cc(=O)c5c(O)c(NCCCCCC(=O)O)c6c(c(c1CC(C)=C6)c23)c54 [HC-9b] .
Reply: 622

Query: Name the recorded maximum absorption wavelength for COc1c(NCC(=O)O)c2c(=O)cc(OC)c3c4c(OC)cc(=O)c5c(O)c(NCC(=O)O)c6c(c(c1CC(C)=C6)c23)c54 [HC-7b] .
Reply: 622

Query: Name the recorded maximum absorption wavelength for CCCNc1c2c3c4c(c(OC)c(=O)c5c(NCCC)cc(OC)c(c6c(OC)cc(O)c(c1=O)c63)c54)C(C(C)=O)C(C)=C2 (centres unmarked) [HB-33d] .
Reply: 620

Query: Name the recorded maximum absorption wavelength for COCCOCCOCCOCCOC(=O)C1CCC(CNc2c3c4c5c(c(OC)c(=O)c6c(O)cc(OC)c(c7c(OC)cc(NCC8CCC(C(=O)OCCOCCOCCOCCOC)CC8)c(c2=O)c74)c65)CC(C)=C3)CC1 (centres unmarked) [HC-13c-PEG4] .
Reply: 632

Query: Name the recorded maximum absorption wavelength for COc1c2c3c4c(c(NCC5CCC(C(=O)NCCCC[P+](c6ccccc6)(c6ccccc6)c6ccccc6)CC5)c(=O)c5c(O)cc(OC)c(c6c(OC)cc(NCC7CCC(C(=O)NCCCC[P+](c8ccccc8)(c8ccccc8)c8ccccc8)CC7)c(c1=O)c63)c54)C=C(C)C2 (centres unmarked) [HC-13d-NH—C4-PPh3+] .
Reply: 618

Query: Name the recorded maximum absorption wavelength for CCNNc1c(O)c2c(=O)cc(OC)c3c4c(OC)cc(=O)c5c(NNCC)c(OC)c6c(c(c1C=C(C)C6C(C)=O)c23)c54 (centres unmarked) [HB-36b] .
Reply: 622

Query: Name the recorded maximum absorption wavelength for COc1c2c3c4c(c(NCc5cccc[n+]5CCCC(=O)O)c(=O)c5c(NCc6cccc[n+]6CCCC(=O)O)cc(OC)c(c6c(OC)cc(O)c(c1=O)c63)c54)C=C(C)C2C(C)=O (centres unmarked) [HB-38c-N—COOH] .
Reply: 622

Query: Name the recorded maximum absorption wavelength for COc1c2c3c4c(c(NCCCC(=O)NCCCCCCS(=O)(=O)O)c(=O)c5c(NCCCC(=O)NCCCCCCS(=O)(=O)O)cc(OC)c(c6c(OC)cc(O)c(c1=O)c63)c54)C=C(C)C2 [HC-8c-NH—C6-SO3H] .
Reply: 632

Query: Name the recorded maximum absorption wavelength for COc1c(O)c2c(=O)cc(OC)c3c4c(OC)cc(=O)c5c(NCCC(=O)NCCN6CCOCC6)c(NCCC(=O)NCCN6CCOCC6)c6c(c(c1C(C(C)=O)C(C)=C6)c23)c54 (centres unmarked) [HB-42a] .
Reply: 620

Query: Name the recorded maximum absorption wavelength for COCCOCCOCCOCCOCCOCCOCCOCCOCCOCCOCCOCCOCCC(=O)OCCOCCNc1c2c3c4c(c(OC)c(=O)c5c(O)cc(OC)c(c6c(OC)cc(NCCOCCOC(=O)CCOCCOCCOCCOCCOCCOCCOCCOCCOCCOCCOCCOCCOC)c(c1=O)c63)c54)CC(C)=C2 [HC-1c-PEG12] .
Reply: 626

Query: Name the recorded maximum absorption wavelength for COc1c(O)c2c(=O)cc(OC)c3c4c(OC)cc(=O)c5c(NCC6CCC(C(=O)O)CC6)c(NCC6CCC(C(=O)O)CC6)c6c(c(c1C(C(C)=O)C(C)=C6)c23)c54 (centres unmarked) [HB-13a] .
Reply: 621
